molecular target: T1, cynomolgus folate receptor alpha, recombinant (cynomolgus, UniProt A0A2K5U044 25-233); experiment: BLI, purified VHH
T1 construct: also called cyFOLR1; cynomolgus FRα
T1 sequence (A0A2K5U044 entry or part of it): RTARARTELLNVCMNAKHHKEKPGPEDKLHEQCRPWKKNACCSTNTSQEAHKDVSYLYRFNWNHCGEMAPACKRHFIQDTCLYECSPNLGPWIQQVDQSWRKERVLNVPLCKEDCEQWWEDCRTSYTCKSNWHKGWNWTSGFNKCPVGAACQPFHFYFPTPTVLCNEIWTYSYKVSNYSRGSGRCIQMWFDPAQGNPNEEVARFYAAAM
Give log10 koff for every item shown.
Plainly stated, the numbers are log10 of koff given in s⁻¹.

Which value of log10 koff has been reported for P01500058: P01500001(G26E, G28P)-FLAG3-HIS6 (VHH, also called P0150058) VHH: EVQLVESGGGLVQPGGSLRLSCAASESPFSGMIMGWYRQAPGKQRELVATVTSHGTTNYADSVKGRFTISRDNAKNTVYLQMNSLRPEDTAVYYCNAHFPGIYWGKGTLVTVSS in the records?
-2.43

Try this binder too: P01500008: 2MFR67(Q1E, Q5V, Q108L)-FLAG3-HIS6 (VHH, Entry includes the tags; also called 2MFR67-Flag3-His6) VHH: EVQLVESGGGLVQAGGSLRLSCAASGSGFSGMIMGWYRQAPGKQRELVATVTSHGTTNYADSVKGRFTISREDSKNTVLLQMNSLKPEDTAVYYCNAHFPGIYWGKGTLVTVSS
-3.34

Also check P01500057: P01500001(G26E, G28P, D72E, N73G)-FLAG3-HIS6 (VHH, also called P0150057) VHH: EVQLVESGGGLVQPGGSLRLSCAASESPFSGMIMGWYRQAPGKQRELVATVTSHGTTNYADSVKGRFTISREGAKNTVYLQMNSLRPEDTAVYYCNAHFPGIYWGKGTLVTVSS
-3.63

Moving on to P01500054: P01500001(I33L, N73P)-FLAG3-HIS6 (VHH, also called P0150054) VHH: EVQLVESGGGLVQPGGSLRLSCAASGSGFSGMLMGWYRQAPGKQRELVATVTSHGTTNYADSVKGRFTISRDPAKNTVYLQMNSLRPEDTAVYYCNAHFPGIYWGKGTLVTVSS
-3.83

Try this binder too: P01500044: P01500001(S30I, D72E, N73G)-FLAG3-HIS6 (VHH, also called P0150044) VHH: EVQLVESGGGLVQPGGSLRLSCAASGSGFIGMIMGWYRQAPGKQRELVATVTSHGTTNYADSVKGRFTISREGAKNTVYLQMNSLRPEDTAVYYCNAHFPGIYWGKGTLVTVSS
-3.13

Could you do the same for P01500046: P01500001(N73P)-FLAG3-HIS6 (VHH, also called P0150046) VHH: EVQLVESGGGLVQPGGSLRLSCAASGSGFSGMIMGWYRQAPGKQRELVATVTSHGTTNYADSVKGRFTISRDPAKNTVYLQMNSLRPEDTAVYYCNAHFPGIYWGKGTLVTVSS , please?
-2.44

// next record P01500048: P01500001(S30I, D72P)-FLAG3-HIS6 (VHH, also called P0150048) VHH: EVQLVESGGGLVQPGGSLRLSCAASGSGFIGMIMGWYRQAPGKQRELVATVTSHGTTNYADSVKGRFTISRPNAKNTVYLQMNSLRPEDTAVYYCNAHFPGIYWGKGTLVTVSS
-2.88

Cool, now P01500049: P01500001(G26E)-FLAG3-HIS6 (VHH, also called P0150049) VHH: EVQLVESGGGLVQPGGSLRLSCAASESGFSGMIMGWYRQAPGKQRELVATVTSHGTTNYADSVKGRFTISRDNAKNTVYLQMNSLRPEDTAVYYCNAHFPGIYWGKGTLVTVSS
-3.41
